B1: ZNF263 (parent)
chain: LLRHQRIHTGERPYKCPECGKSFS

Variants of: B1
Experiment: protein stability index of a GFP-peptide fusion (GPS, HEK-293T) (PSI 1-6); higher = more stable;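 note: lentivirally expressed fusions sorted by FACS into six bins by GFP to DsRed ratio, PSI derived from sequencing read proportions per bin multiplied by bin number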
Settings: c terminus: a fixed tail appended
Everything with protein stability index lower than 3 is FALSE; everything else, including exactly 3, is TRUE.

Decide: is the reported value of protein stability index for LLRHQRIHTGERPYKWPECGKSFS [C16W] equal to or greater than 3?
TRUE

Please answer likewise for LLRHQRIHTGERPYRCPECGKSFS [K15R]
FALSE

Please answer likewise for LLRHQRIHTGDRPYKCPECGKSFS [E11D]
FALSE

Please answer likewise for LLSHQRIHTGERPYKCPECGKSFS [R3S]
FALSE

Please answer likewise for LLRHMRIHTGERPYKCPECGKSFS [Q5M]
FALSE

Please answer likewise for LLRHQRIHTGERPCKCPECGKSFS [Y14C]
TRUE

Please answer likewise for LLRHQRIHTGERPYKNPECGKSFS [C16N]
FALSE

Please answer likewise for LLRHQRIHTGERPYKCPECGKIFS [S22I]
FALSE

Please answer likewise for LLRHQRIHTGERPYKCPMCGKSFS [E18M]
FALSE

Please answer likewise for LLRHQRIHTGCRPYKCPECGKSFS [E11C]
FALSE

Please answer likewise for LLRHQRIHTGERPYKCPECGKAFS [S22A]
FALSE

Please answer likewise for LLRYQRIHTGERPYKCPECGKSFS [H4Y]
FALSE

Please answer likewise for LLRHQRIHTGECPYKCPECGKSFS [R12C]
FALSE

Please answer likewise for NLRHQRIHTGERPYKCPECGKSFS [L1N]
FALSE

Please answer likewise for LLRHLRIHTGERPYKCPECGKSFS [Q5L]
FALSE

Please answer likewise for LLRHQRIHTGERPYYCPECGKSFS [K15Y]
FALSE

Please answer likewise for LLRHQRIHTGERPYKCPECWKSFS [G20W]
FALSE

Please answer likewise for LLRHQRIHTGERPYKCMECGKSFS [P17M]
FALSE

Please answer likewise for LLRHQRIHTLERPYKCPECGKSFS [G10L]
FALSE

Please answer likewise for LLRHQAIHTGERPYKCPECGKSFS [R6A]
FALSE

Please answer likewise for LLRHARIHTGERPYKCPECGKSFS [Q5A]
FALSE

Please answer likewise for LLRHQRIHTGERPYKCKECGKSFS [P17K]
FALSE

Please answer likewise for LDRHQRIHTGERPYKCPECGKSFS [L2D]
TRUE

Please answer likewise for LLRHQRIHTGERRYKCPECGKSFS [P13R]
FALSE

Please answer likewise for LLRHQRIHTHERPYKCPECGKSFS [G10H]
FALSE

Please answer likewise for PLRHQRIHTGERPYKCPECGKSFS [L1P]
FALSE

Please answer likewise for LLRHQRIHTGERPYKCPECNKSFS [G20N]
FALSE

Please answer likewise for LLRHQRIHTGERPYKGPECGKSFS [C16G]
TRUE

Please answer likewise for LLRHQRIHTGERPYKCPECGGSFS [K21G]
FALSE

Please answer likewise for LLRNQRIHTGERPYKCPECGKSFS [H4N]
FALSE

Please answer likewise for LERHQRIHTGERPYKCPECGKSFS [L2E]
TRUE

Please answer likewise for LLRHQRIHTSERPYKCPECGKSFS [G10S]
FALSE

Please answer likewise for LLRHQRIHTMERPYKCPECGKSFS [G10M]
FALSE

Please answer likewise for LLRHDRIHTGERPYKCPECGKSFS [Q5D]
FALSE

Please answer likewise for LLRHQRHHTGERPYKCPECGKSFS [I7H]
FALSE

Please answer likewise for LLRHQRIHTGERPYGCPECGKSFS [K15G]
FALSE

Please answer likewise for LLRHQWIHTGERPYKCPECGKSFS [R6W]
FALSE

Please answer likewise for LLRHQGIHTGERPYKCPECGKSFS [R6G]
FALSE

Please answer likewise for LLRHQRIHTGERPVKCPECGKSFS [Y14V]
FALSE

Please answer likewise for LLRHQRIHTGERPYKCPECGKSTS [F23T]
FALSE

Please answer likewise for LLRHQRIHTGERPYKCPECGKSPS [F23P]
TRUE

Please answer likewise for LLRHQRIATGERPYKCPECGKSFS [H8A]
FALSE

Please answer likewise for LLRHQRIHTGERPYKCPECTKSFS [G20T]
FALSE

Please answer likewise for LLRHQRIHTGERPYKCPECGHSFS [K21H]
FALSE

Please answer likewise for LLRHQRIHTGERPYKAPECGKSFS [C16A]
TRUE

Please answer likewise for LLRHQRIHTGERPRKCPECGKSFS [Y14R]
FALSE

Please answer likewise for LLRHQRIHTAERPYKCPECGKSFS [G10A]
FALSE

Please answer likewise for LLRHQRIVTGERPYKCPECGKSFS [H8V]
FALSE

Please answer likewise for LLRHQCIHTGERPYKCPECGKSFS [R6C]
TRUE

Please answer likewise for LLRHQRIHTGERPYKCPECGKSRS [F23R]
FALSE

Please answer likewise for LLRHQRIHTGERPYKCPCCGKSFS [E18C]
FALSE

Please answer likewise for LLRHQRIHTGTRPYKCPECGKSFS [E11T]
FALSE

Please answer likewise for LLRHQRIHTGERPYKCWECGKSFS [P17W]
FALSE

Please answer likewise for LLRHQRIHTGERPYKCPECGKSFR [S24R]
FALSE

Please answer likewise for LLRHQRIHTGERPYKCPEYGKSFS [C19Y]
FALSE

Please answer likewise for LLRHQRIHTGERMYKCPECGKSFS [P13M]
FALSE

Please answer likewise for LLRHQNIHTGERPYKCPECGKSFS [R6N]
FALSE

Please answer likewise for ILRHQRIHTGERPYKCPECGKSFS [L1I]
FALSE

Please answer likewise for LLRHQRIHTGERPYKCPECIKSFS [G20I]
FALSE

Please answer likewise for LLRHQRIHTGERPYKCPEEGKSFS [C19E]
TRUE

Please answer likewise for LLRHQRIHTGERPYKCAECGKSFS [P17A]
FALSE

Please answer likewise for LLQHQRIHTGERPYKCPECGKSFS [R3Q]
FALSE

Please answer likewise for LLRHQRIHLGERPYKCPECGKSFS [T9L]
TRUE

Please answer likewise for LLRHQRIHTGERPYKCPECGKSFT [S24T]
FALSE

Please answer likewise for LLRHQRIHTGERPYACPECGKSFS [K15A]
FALSE

Please answer likewise for LLRHQRIHTGERPYKCPELGKSFS [C19L]
FALSE

Please answer likewise for LLRHQRIHTGEAPYKCPECGKSFS [R12A]
FALSE

Please answer likewise for LLRHQRIHTCERPYKCPECGKSFS [G10C]
FALSE

Please answer likewise for LLRHQRIHTGERPYNCPECGKSFS [K15N]
FALSE

Please answer likewise for LLEHQRIHTGERPYKCPECGKSFS [R3E]
FALSE

Please answer likewise for LLRHQRIHTGERPYKCPECYKSFS [G20Y]
FALSE

Please answer likewise for LLRHQRIHTGERPYKCPECGKSFM [S24M]
FALSE

Please answer likewise for LLRIQRIHTGERPYKCPECGKSFS [H4I]
FALSE

Please answer likewise for LLRHQRIHTGERPYHCPECGKSFS [K15H]
FALSE

Please answer likewise for LLRHQRIHTGEIPYKCPECGKSFS [R12I]
FALSE

Please answer likewise for LLRHQRIHTGEGPYKCPECGKSFS [R12G]
TRUE

Please answer likewise for LLRHQRIHTGERPYKCGECGKSFS [P17G]
FALSE

Please answer likewise for LLRHQRINTGERPYKCPECGKSFS [H8N]
FALSE

Please answer likewise for LLRHQRIHTGERPYKCPWCGKSFS [E18W]
TRUE
